biological target: hα7-wt nAChR-expressing GH4Cl cells (Homo sapiens); construct: expressed in transfected cells; assay: Patch-clamp current recording (whole-cell), potentiation of choline 1 mM response, PAM type; type: cell-based; settings: according to Ex. D.2; "<5" = no top plateau reached at maximal concentration; read-out: Potency (pEC50) (converted)
Sequence (P36544 23-502): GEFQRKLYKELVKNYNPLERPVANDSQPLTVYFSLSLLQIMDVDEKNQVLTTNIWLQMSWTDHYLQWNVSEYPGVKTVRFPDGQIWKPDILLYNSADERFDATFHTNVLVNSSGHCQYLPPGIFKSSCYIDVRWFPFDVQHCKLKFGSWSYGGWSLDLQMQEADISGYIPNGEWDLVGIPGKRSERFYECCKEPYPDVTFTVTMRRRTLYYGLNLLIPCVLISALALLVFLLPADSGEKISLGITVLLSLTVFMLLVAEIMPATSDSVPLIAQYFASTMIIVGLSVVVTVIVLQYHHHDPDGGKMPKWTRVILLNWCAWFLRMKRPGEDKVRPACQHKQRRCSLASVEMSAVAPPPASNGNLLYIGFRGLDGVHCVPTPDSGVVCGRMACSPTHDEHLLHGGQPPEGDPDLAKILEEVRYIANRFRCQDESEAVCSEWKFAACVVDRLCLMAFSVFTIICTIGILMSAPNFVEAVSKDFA
Labelling field: enter TRUE if recorded EC50 is less than 300 nM. Enter FALSE if it equals or exceeds that cut-off.

q: I wonder whether CCc1cc(-n2nc(Nc3ccc(F)c(F)c3)nc2C[C@H](C)O)ccn1 [E131] has EC50 below 300 nM. Can you tell?
a: FALSE

q: Follow-up item: COc1cccc(-n2nc(Nc3cccc(OC(F)(F)F)c3)nc2CCC(=O)N(C)C)c1 [E60]
a: TRUE

q: Follow-up item: CCNC(=O)Cc1nc(Nc2ccc(F)c(C(F)(F)F)c2)nn1-c1cc(C)nc(C)c1 [E224]
a: TRUE

q: Follow-up item: Cc1cc(-n2nc(Nc3cccc(OC(F)(F)F)c3)nc2CC(=O)NC2CCC2)cc(C)n1 [E184]
a: TRUE
